# Clinical score listing for each entry below
System: collagen-induced arthritis
Test: Mouse collagen-induced arthritis (CIA) animal model
Assay type: in vivo
Details: DBA/1 mice CIA model, dose 4.0 mg/kg, subcutaneous from day 30, n=10; highest score 16
Peptide text beside a SMILES is read from it. * marks the point of attachment. X58 = O=C1C=CC(=O)N1c1cccc(CCCCCCCCCCCC(=O)*)c1; X84 = O=C1C=CC(=O)N1c1ccccc1CCCCCCCCCCCCC(=O)*; X60 = O=C1C=CC(=O)N1c1ccccc1CCCCCCCCCC(=O)*; X55 = O=C1C=CC(=O)N1c1ccccc1CCCCCCCCC(=O)*; X49 = O=C1C=CC(=O)N1c1ccccc1CCCCCC(=O)*; X61 = O=C1C=CC(=O)N1c1cccc(CCCC(=O)*)c1
MEASURED_ATTRIBUTE: Clinical score

compound="C[C@H](NC(=O)CNC(=O)[C@H](CCCNC(=N)N)NC(=O)CCCCCCCCCCCc1cccc(N2C(=O)C=CC2=O)c1)C(=O)N[C@@H](CC(=O)O)C(=O)N[C@@H](CCCNC(=N)N)C(=O)N[C@@H](C)C(=O)NCC(=O)NCC(=O)NCC(=O)NCC(=O)N[C@@H](CCCNC(=N)N)C(=O)NCC(=O)N[C@@H](CC(=O)O)C(=O)O [X35] (X58-RGADRAGGGGRGD-OH)" target_system="collagen-induced arthritis" measured_attribute="Clinical score" numeric_value=8.78
compound="C[C@H](NC(=O)CNC(=O)[C@H](CCCNC(=N)N)NC(=O)CCCc1cccc(N2C(=O)C=CC2=O)c1)C(=O)N[C@@H](CC(=O)O)C(=O)N[C@@H](CCCNC(=N)N)C(=O)N[C@@H](C)C(=O)NCC(=O)NCC(=O)NCC(=O)NCC(=O)N[C@@H](CCCNC(=N)N)C(=O)NCC(=O)N[C@@H](CC(=O)O)C(=O)O [X27] (X61-RGADRAGGGGRGD-OH)" target_system="collagen-induced arthritis" measured_attribute="Clinical score" numeric_value=8.75
compound="C[C@H](NC(=O)CNC(=O)[C@H](CCCNC(=N)N)NC(=O)CCCCCCCCc1ccccc1N1C(=O)C=CC1=O)C(=O)N[C@@H](CC(=O)O)C(=O)N[C@@H](CCCNC(=N)N)C(=O)N[C@@H](C)C(=O)NCC(=O)NCC(=O)NCC(=O)NCC(=O)N[C@@H](CCCNC(=N)N)C(=O)NCC(=O)N[C@@H](CC(=O)O)C(=O)O [X20] (X55-RGADRAGGGGRGD-OH)" target_system="collagen-induced arthritis" measured_attribute="Clinical score" numeric_value=9.07
compound="C[C@H](NC(=O)CNC(=O)[C@H](CCCNC(=N)N)NC(=O)CCCCCCCCCCCCc1ccccc1N1C(=O)C=CC1=O)C(=O)N[C@@H](CC(=O)O)C(=O)N[C@@H](CCCNC(=N)N)C(=O)N[C@@H](C)C(=O)NCC(=O)NCC(=O)NCC(=O)NCC(=O)N[C@@H](CCCNC(=N)N)C(=O)NCC(=O)N[C@@H](CC(=O)O)C(=O)O [X24] (X84-RGADRAGGGGRGD-OH)" target_system="collagen-induced arthritis" measured_attribute="Clinical score" numeric_value=8.94
compound="C[C@H](NC(=O)CNC(=O)[C@H](CCCNC(=N)N)NC(=O)CCCCCc1ccccc1N1C(=O)C=CC1=O)C(=O)N[C@@H](CC(=O)O)C(=O)N[C@@H](CCCNC(=N)N)C(=O)N[C@@H](C)C(=O)NCC(=O)NCC(=O)NCC(=O)NCC(=O)N[C@@H](CCCNC(=N)N)C(=O)NCC(=O)N[C@@H](CC(=O)O)C(=O)O [X17] (X49-RGADRAGGGGRGD-OH)" target_system="collagen-induced arthritis" measured_attribute="Clinical score" numeric_value=9.13
compound="C[C@H](NC(=O)CNC(=O)[C@H](CCCNC(=N)N)NC(=O)CCCCCCCCCc1ccccc1N1C(=O)C=CC1=O)C(=O)N[C@@H](CC(=O)O)C(=O)N[C@@H](CCCNC(=N)N)C(=O)N[C@@H](C)C(=O)NCC(=O)NCC(=O)NCC(=O)NCC(=O)N[C@@H](CCCNC(=N)N)C(=O)NCC(=O)N[C@@H](CC(=O)O)C(=O)O [X21] (X60-RGADRAGGGGRGD-OH)" target_system="collagen-induced arthritis" measured_attribute="Clinical score" numeric_value=8.79

----------
Assay: Half-lives and pharmacokinetic parameters of polypeptides vs HM-1
Conditions: in vivo; read-out: MRT0-∞
Peptide text beside a SMILES is read from it. * marks the point of attachment. Hexanoyl(6-maleimido) = O=C1C=CC(=O)N1CCCCCC(=O)*
MEASURED_ATTRIBUTE: MRT inf (h)

compound="C[C@H](NC(=O)CNC(=O)[C@H](CCCNC(=N)N)NC(=O)CCCCCN1C(=O)C=CC1=O)C(=O)N[C@@H](CC(=O)O)C(=O)N[C@@H](CCCNC(=N)N)C(=O)N[C@@H](C)C(=O)NCC(=O)N[C@@H](CO)C(=O)N[C@@H](CO)C(=O)N[C@@H](CO)C(=O)N[C@@H](CO)C(=O)N[C@@H](CCCNC(=N)N)C(=O)NCC(=O)N[C@@H](CC(=O)O)C(=O)O [P14] ({Hexanoyl(6-maleimido)}-RGADRAGSSSSRGD-OH; C-terminus assumed)" measured_attribute="MRT inf" numeric_value=57.5
compound="CC(C)[C@H](NC(=O)[C@H](C)NC(=O)CNC(=O)[C@H](CCCNC(=N)N)NC(=O)CCCCCN1C(=O)C=CC1=O)C(=O)N[C@@H](CC(=O)O)C(=O)N[C@@H](CCCNC(=N)N)C(=O)N[C@@H](C)C(=O)NCC(=O)NCC(=O)NCC(=O)NCC(=O)N[C@@H](CCCNC(=N)N)C(=O)NCC(=O)N[C@@H](CC(=O)O)C(=O)O [P10] ({Hexanoyl(6-maleimido)}-RGAVDRAGGGGRGD-OH; C-terminus assumed)" measured_attribute="MRT inf" numeric_value=44.1
compound="C[C@H](NC(=O)CNC(=O)[C@H](CCCNC(=N)N)NC(=O)CCCCCN1C(=O)C=CC1=O)C(=O)N[C@@H](CC(=O)O)C(=O)N[C@@H](CCCNC(=N)N)C(=O)N[C@@H](C)C(=O)NCC(=O)NCC(=O)NCC(=O)NCC(=O)N[C@@H](CCCNC(=N)N)C(=O)NCC(=O)N[C@@H](CC(=O)O)C(=O)O [X5] ({Hexanoyl(6-maleimido)}-RGADRAGGGGRGD-OH)" measured_attribute="MRT inf" numeric_value=49.9

----------
Test system: carrageenan-induced toe swelling
Experiment: Carrageenan-induced toe swelling in rats
Format: in vivo
Conditions: SD rats, 4.0 mg/kg once a day for 3 d, 3 h after carrageenan
Peptide text beside a SMILES is read from it. * marks the point of attachment. X58 = O=C1C=CC(=O)N1c1cccc(CCCCCCCCCCCC(=O)*)c1; X74 = O=C1C=CC(=O)N1c1cccc(CCCCCCCCCCC(=O)*)c1; X64 = O=C1C=CC(=O)N1c1cccc(CCCCCCCCCC(=O)*)c1; X68 = O=C1C=CC(=O)N1c1ccccc1CCCCCCCCCCCC(=O)*; X55 = O=C1C=CC(=O)N1c1ccccc1CCCCCCCCC(=O)*; X79 = O=C1C=CC(=O)N1c1cccc(CCC(=O)*)c1
MEASURED_ATTRIBUTE: Swelling degree 3 h (mg)

molecule="C[C@H](NC(=O)CNC(=O)[C@H](CCCNC(=N)N)NC(=O)CCCCCCCCCCCc1ccccc1N1C(=O)C=CC1=O)C(=O)N[C@@H](CC(=O)O)C(=O)N[C@@H](CCCNC(=N)N)C(=O)N[C@@H](C)C(=O)NCC(=O)NCC(=O)NCC(=O)NCC(=O)N[C@@H](CCCNC(=N)N)C(=O)NCC(=O)N[C@@H](CC(=O)O)C(=O)O [X23] (X68-RGADRAGGGGRGD-OH)" measured_attribute="Swelling degree 3 h" unit_abbreviation=mg numeric_value=0.34
molecule="C[C@H](NC(=O)CNC(=O)[C@H](CCCNC(=N)N)NC(=O)CCCCCCCCCCc1cccc(N2C(=O)C=CC2=O)c1)C(=O)N[C@@H](CC(=O)O)C(=O)N[C@@H](CCCNC(=N)N)C(=O)N[C@@H](C)C(=O)NCC(=O)NCC(=O)NCC(=O)NCC(=O)N[C@@H](CCCNC(=N)N)C(=O)NCC(=O)N[C@@H](CC(=O)O)C(=O)O [X34] (X74-RGADRAGGGGRGD-OH)" measured_attribute="Swelling degree 3 h" unit_abbreviation=mg numeric_value=0.38
molecule="C[C@H](NC(=O)CNC(=O)[C@H](CCCNC(=N)N)NC(=O)CCCCCCCCCCCc1cccc(N2C(=O)C=CC2=O)c1)C(=O)N[C@@H](CC(=O)O)C(=O)N[C@@H](CCCNC(=N)N)C(=O)N[C@@H](C)C(=O)NCC(=O)NCC(=O)NCC(=O)NCC(=O)N[C@@H](CCCNC(=N)N)C(=O)NCC(=O)N[C@@H](CC(=O)O)C(=O)O [X35] (X58-RGADRAGGGGRGD-OH)" measured_attribute="Swelling degree 3 h" unit_abbreviation=mg numeric_value=0.36
molecule="C[C@H](NC(=O)CNC(=O)[C@H](CCCNC(=N)N)NC(=O)CCc1cccc(N2C(=O)C=CC2=O)c1)C(=O)N[C@@H](CC(=O)O)C(=O)N[C@@H](CCCNC(=N)N)C(=O)N[C@@H](C)C(=O)NCC(=O)NCC(=O)NCC(=O)NCC(=O)N[C@@H](CCCNC(=N)N)C(=O)NCC(=O)N[C@@H](CC(=O)O)C(=O)O [X26] (X79-RGADRAGGGGRGD-OH)" measured_attribute="Swelling degree 3 h" unit_abbreviation=mg numeric_value=0.31
molecule="C[C@H](NC(=O)CNC(=O)[C@H](CCCNC(=N)N)NC(=O)CCCCCCCCc1ccccc1N1C(=O)C=CC1=O)C(=O)N[C@@H](CC(=O)O)C(=O)N[C@@H](CCCNC(=N)N)C(=O)N[C@@H](C)C(=O)NCC(=O)NCC(=O)NCC(=O)NCC(=O)N[C@@H](CCCNC(=N)N)C(=O)NCC(=O)N[C@@H](CC(=O)O)C(=O)O [X20] (X55-RGADRAGGGGRGD-OH)" measured_attribute="Swelling degree 3 h" unit_abbreviation=mg numeric_value=0.34
molecule="C[C@H](NC(=O)CNC(=O)[C@H](CCCNC(=N)N)NC(=O)CCCCCCCCCc1cccc(N2C(=O)C=CC2=O)c1)C(=O)N[C@@H](CC(=O)O)C(=O)N[C@@H](CCCNC(=N)N)C(=O)N[C@@H](C)C(=O)NCC(=O)NCC(=O)NCC(=O)NCC(=O)N[C@@H](CCCNC(=N)N)C(=O)NCC(=O)N[C@@H](CC(=O)O)C(=O)O [X33] (X64-RGADRAGGGGRGD-OH)" measured_attribute="Swelling degree 3 h" unit_abbreviation=mg numeric_value=0.31
